# targetDesc: Hypoxia-inducible factor 1-alpha (Homo sapiens) (UniProt Q16665)
# Sequence (Q16665 whole entry, looked up): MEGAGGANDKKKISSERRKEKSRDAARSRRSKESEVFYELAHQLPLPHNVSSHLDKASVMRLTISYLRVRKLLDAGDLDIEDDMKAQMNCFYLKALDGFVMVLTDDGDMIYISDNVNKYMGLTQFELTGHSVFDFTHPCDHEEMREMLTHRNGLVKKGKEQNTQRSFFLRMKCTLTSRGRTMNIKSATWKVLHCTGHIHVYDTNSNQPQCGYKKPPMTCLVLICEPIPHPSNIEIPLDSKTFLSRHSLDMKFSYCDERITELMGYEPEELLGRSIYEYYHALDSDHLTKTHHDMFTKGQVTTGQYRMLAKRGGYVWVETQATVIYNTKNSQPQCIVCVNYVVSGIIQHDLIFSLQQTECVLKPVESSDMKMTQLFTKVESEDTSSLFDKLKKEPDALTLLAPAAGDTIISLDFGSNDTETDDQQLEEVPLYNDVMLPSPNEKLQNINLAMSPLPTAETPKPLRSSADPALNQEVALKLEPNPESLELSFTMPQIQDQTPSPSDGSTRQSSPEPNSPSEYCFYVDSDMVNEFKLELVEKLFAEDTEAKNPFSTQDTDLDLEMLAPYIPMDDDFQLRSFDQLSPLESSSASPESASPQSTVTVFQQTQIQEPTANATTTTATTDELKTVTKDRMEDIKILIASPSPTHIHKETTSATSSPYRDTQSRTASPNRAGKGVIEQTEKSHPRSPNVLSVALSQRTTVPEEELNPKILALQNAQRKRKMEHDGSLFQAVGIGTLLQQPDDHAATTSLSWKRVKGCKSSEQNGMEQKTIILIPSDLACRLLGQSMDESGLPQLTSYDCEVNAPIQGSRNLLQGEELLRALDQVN
# assayInfo: activators of HIF1alpha nuclear accumulation, confirmation, imaging, fluorescence, U2OS GFP-HIF1alpha (AID 434951)
# conditionDetails: U2OS GFP-HIF1alpha nuclear intensity, high-content imaging
Calls of active or inactive are those of the source.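 How the source made its calls: active means a fitted half-maximal concentration EC50 for the rise in nuclear signal no higher than ten times the top dose tested; inconclusive means flat fit with activity between 30% and 70%, or unusable fit; inactive means EC50 beyond ten times the top dose.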
The reply should be one of these categories: label 1 for active, label 0 for inactive

Solved entries:
CC(OC(=O)c1ncc(Cl)c(Cl)c1Cl)C(=O)NC1(C#N)CCCCC1 (stereo unspecified) :: label 1
Cc1ccc(C(=O)NC(=S)NNS(=O)(=O)c2ccc(C)cc2)cc1 :: label 0
CCN(CC)CCOc1ccc2c(c1)C(=NO)c1cc(OCCN(CC)CC)ccc1-2 :: label 0
COc1ccc(NC(=O)CNC(=O)Cc2cccc3ccccc23)c(OC)c1 :: label 0
COc1ccc2c(c1)-c1nc(NC(=O)c3ccco3)sc1CC2 :: label 0

How did this test come out for CCOC(=O)/C(=N\Nc1cccc(C(F)(F)F)c1)N1CCOCC1 ?
label 0

Test call, this compound: O=C(NC(c1ccccc1)c1ccccc1)C1CCCO1 (stereo unspecified)
label 0

Recorded test outcome, item Cc1ccc(/C=N/NC(=O)c2c(-c3ccccc3)noc2C)c(O)c1
label 1

Any idea what this test logged for COc1ccc(-c2nc(C#N)c(N3CCN(C(=O)c4ccco4)CC3)o2)cc1OC ?
label 0

For this compound, state the assay outcome: CCC1CCc2sc(C(=O)O)cc2C1 (stereo unspecified)
label 0

Identify the outcome logged in this assay for the compound shown: O=C(Nc1nc(-c2ccccn2)cs1)c1cc(Cl)ccc1[N+](=O)[O-]
label 1
